Data origin: ChEMBL document CHEMBL1138624

The entries below come with measured pIC50 values attached.
# Test system: K562
# procedure.details: Cytotoxicity against multidrug-resistant human K562 cells after 48 hrs by MTT assay
# Format: functional, cell-based
# assay.context: K562, 48 h
The value called pIC50 is obtained by taking minus log10 of the concentration in mol/L.

Examples from the recorded data:
CCn1c2ccncc2c2cc(S(=O)(=O)Nc3ccc4c(ccn4C)c3)ccc21 = 4.77
COc1cc(OS(=O)(=O)c2ccc3[nH]c4ccncc4c3c2)cc(OC)c1OC = 5.58
O=S(=O)(Oc1cccc2ccccc12)c1ccc2[nH]c3ccncc3c2c1 = 4.97

// next entry
Enquiry: Identify measured pIC50 obtained with K562 for Nc1ccc(OS(=O)(=O)c2ccc3[nH]c4ccncc4c3c2)cc1 .
Return: 5.23
